Documented inhibition at 3 µM across a set of compounds
- Tgt: Human CaV2.2 channels (Homo sapiens)
- Construct: expressed in transfected cells; also stably expressing Kir2.3)
- Sequence (Q00975 whole entry): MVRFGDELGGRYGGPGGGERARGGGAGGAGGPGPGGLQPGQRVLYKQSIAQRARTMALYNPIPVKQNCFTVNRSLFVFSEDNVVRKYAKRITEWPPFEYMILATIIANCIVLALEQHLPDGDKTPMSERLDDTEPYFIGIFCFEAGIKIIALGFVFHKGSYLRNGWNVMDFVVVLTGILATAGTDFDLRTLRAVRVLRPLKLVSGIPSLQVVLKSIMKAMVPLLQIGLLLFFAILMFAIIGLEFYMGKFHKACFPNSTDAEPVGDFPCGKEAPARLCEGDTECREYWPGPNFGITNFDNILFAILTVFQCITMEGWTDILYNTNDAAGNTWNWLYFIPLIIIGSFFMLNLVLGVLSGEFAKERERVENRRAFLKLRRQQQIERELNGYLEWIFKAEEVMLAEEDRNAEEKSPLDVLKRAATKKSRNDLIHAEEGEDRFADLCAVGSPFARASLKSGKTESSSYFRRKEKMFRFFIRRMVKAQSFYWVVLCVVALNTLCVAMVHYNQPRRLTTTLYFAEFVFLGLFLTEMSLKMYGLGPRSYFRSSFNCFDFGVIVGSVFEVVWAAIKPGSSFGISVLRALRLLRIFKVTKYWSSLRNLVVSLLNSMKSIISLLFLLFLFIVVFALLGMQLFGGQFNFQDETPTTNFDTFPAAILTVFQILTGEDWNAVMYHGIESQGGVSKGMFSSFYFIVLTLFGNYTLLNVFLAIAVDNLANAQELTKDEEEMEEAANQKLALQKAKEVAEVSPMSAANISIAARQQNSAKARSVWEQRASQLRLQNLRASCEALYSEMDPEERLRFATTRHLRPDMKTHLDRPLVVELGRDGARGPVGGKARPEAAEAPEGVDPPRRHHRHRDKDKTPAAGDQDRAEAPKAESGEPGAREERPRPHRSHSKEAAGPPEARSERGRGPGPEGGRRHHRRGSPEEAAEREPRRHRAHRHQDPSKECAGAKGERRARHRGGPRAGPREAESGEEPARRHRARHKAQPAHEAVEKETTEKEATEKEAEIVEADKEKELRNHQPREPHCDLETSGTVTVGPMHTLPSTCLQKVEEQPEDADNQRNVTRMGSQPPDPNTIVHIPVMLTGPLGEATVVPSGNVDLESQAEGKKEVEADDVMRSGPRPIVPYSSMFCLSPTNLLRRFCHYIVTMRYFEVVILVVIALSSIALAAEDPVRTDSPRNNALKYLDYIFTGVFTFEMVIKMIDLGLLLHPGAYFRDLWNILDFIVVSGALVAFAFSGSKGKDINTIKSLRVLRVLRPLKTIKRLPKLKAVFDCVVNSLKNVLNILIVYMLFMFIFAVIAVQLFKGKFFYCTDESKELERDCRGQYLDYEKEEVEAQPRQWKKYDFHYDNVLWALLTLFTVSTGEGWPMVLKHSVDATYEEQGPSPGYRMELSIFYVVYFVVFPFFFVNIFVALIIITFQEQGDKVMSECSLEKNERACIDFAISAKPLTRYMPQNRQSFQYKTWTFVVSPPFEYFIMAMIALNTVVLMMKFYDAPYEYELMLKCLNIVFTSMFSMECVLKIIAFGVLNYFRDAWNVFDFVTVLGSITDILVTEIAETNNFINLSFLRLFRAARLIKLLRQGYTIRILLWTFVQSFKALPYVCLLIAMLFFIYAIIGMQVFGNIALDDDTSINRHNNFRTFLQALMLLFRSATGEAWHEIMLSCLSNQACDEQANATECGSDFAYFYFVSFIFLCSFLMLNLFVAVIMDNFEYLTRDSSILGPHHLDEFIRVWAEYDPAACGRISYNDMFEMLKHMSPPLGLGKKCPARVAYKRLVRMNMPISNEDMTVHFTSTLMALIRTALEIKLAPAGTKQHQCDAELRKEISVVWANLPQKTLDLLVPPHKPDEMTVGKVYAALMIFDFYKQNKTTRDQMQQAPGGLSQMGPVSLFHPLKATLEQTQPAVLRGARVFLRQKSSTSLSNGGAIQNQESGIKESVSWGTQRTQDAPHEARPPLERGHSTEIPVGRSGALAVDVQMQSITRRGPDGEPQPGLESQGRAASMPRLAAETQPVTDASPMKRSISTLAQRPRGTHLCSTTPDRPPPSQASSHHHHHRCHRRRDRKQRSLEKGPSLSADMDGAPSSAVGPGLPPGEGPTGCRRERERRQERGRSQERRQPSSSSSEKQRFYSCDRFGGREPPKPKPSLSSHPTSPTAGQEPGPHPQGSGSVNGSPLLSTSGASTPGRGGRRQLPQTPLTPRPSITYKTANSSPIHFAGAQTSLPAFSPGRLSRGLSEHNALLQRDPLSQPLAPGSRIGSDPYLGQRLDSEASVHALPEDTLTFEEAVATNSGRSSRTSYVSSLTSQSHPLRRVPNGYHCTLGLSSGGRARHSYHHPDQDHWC
- Assay remarks: Fluorescent assay for CaV2.2 channels using potassium depolarization to induce channel opening (FLIPR, Fluo 4)
- Format: cell-based
- Setup conditions: 3 μM test compound; 30 mM KCl alternative assay buffer (inactivated channel state); HEK293 cells; read-out: %-Inhib (CaV2.2) @3 μM @30 mM KCl

Compound	inhibition at 3 µM
Cc1c(-c2ccc(Cl)cn2)c(C(=O)N(C)CCS(C)(=O)=O)n(Cc2ccccc2)c1C(F)(F)F [Example 43]	> 95%
COc1cc(C)c(-c2c(C)c(C(F)(F)F)n(Cc3ccccc3)c2C(=O)N(C)CC(C)(C)C)cn1 [Example 21]	75 to 95%
COc1ncc(-c2c(C)c(C(F)(F)F)n(Cc3ccccc3)c2C(=O)N(C)CC(C)(C)C)cn1 [Example 12]	75 to 95%
COc1ccc(-c2c(C)c(C(F)(F)F)n(Cc3ccccc3)c2C(=O)N(C)CC(C)(C)C)cn1 [Example 02]	40 to 75%
Cc1c(-c2ncccn2)c(C(=O)N(C)CC(C)(C)C)n(Cc2ccccc2)c1C(F)(F)F [Example 35]	75 to 95%
COc1cnc(-c2c(C)c(C(F)(F)F)n(Cc3ccccc3)c2C(=O)N(C)CC(C)(C)C)cn1 [Example 01]	75 to 95%
Cc1c(-c2cn[nH]c2)c(C(=O)N2CCOCC2)n(Cc2ccccc2)c1C(F)(F)F [Example 10]	40 to 75%
Cc1c(-c2ncc(Cl)cn2)c(C(=O)NC(C)C)n(Cc2ccccc2)c1C(F)(F)F [Example 52]	40 to 75%
Cc1c(-c2ccnnc2)c(C(=O)N2CCOCC2)n(Cc2ccccc2)c1C(F)(F)F [Example 37]	40 to 75%
Cc1noc(C)c1-c1c(C)c(C(F)(F)F)n(Cc2ccccc2)c1C(=O)N1CCOCC1 [Example 23]	75 to 95%
Cc1noc(C)c1-c1c(C)c(C(F)(F)F)n(Cc2ccccc2)c1C(=O)N(C)CC(C)(C)C [Example 16]	75 to 95%
Cc1cc(Cl)ncc1-c1c(C)c(C(F)(F)F)n(Cc2ccccc2)c1C(=O)N(C)CC(C)(C)C [Example 20]	75 to 95%
COc1cnc(-c2c(C)c(C(F)(F)F)n(Cc3ccccc3)c2C(=O)N(C)CC(C)(C)C)nc1 [Example 30]	75 to 95%
Cc1c(-c2ccc(Cl)cn2)c(C(=O)N(C)C(C)C)n(Cc2ccccc2)c1C(F)(F)F [Example 50]	> 95%
Cc1c(-c2cncnc2)c(C(=O)N2CCOCC2)n(Cc2ccccc2)c1C(F)(F)F [Example 15]	40 to 75%
Cc1c(-c2ccc(Cl)s2)c(C(=O)N(C)CC(C)(C)C)n(Cc2ccccc2)c1C(F)(F)F [Example 13]	75 to 95%
Cc1c(-c2cnn(C)c2)c(C(=O)N(C)CC(C)(C)C)n(Cc2ccccc2)c1C(F)(F)F [Example 04]	> 95%
Cc1c(-c2ccc(Cl)nn2)c(C(=O)N2CCOCC2)n(Cc2ccccc2)c1C(F)(F)F [Example 29]	40 to 75%
Cc1c(-c2ncc(Cl)cn2)c(C(=O)N2CCOCC2)n(Cc2ccccc2)c1C(F)(F)F [Example 25]	> 95%
Cc1c(-c2ccnnc2)c(C(=O)N(C)CC(C)(C)C)n(Cc2ccccc2)c1C(F)(F)F [Example 32]	75 to 95%
Cc1c(-c2ccc(Cl)cn2)c(C(=O)NC(C)C)n(Cc2ccccc2)c1C(F)(F)F [Example 53]	75 to 95%
Cc1c(-c2ccc(Cl)nn2)c(C(=O)N(C)CC(C)(C)C)n(Cc2ccccc2)c1C(F)(F)F [Example 22]	> 95%
Cc1c(-c2cnn(C)c2)c(C(=O)N2CCOCC2)n(Cc2ccccc2)c1C(F)(F)F [Example 08]	40 to 75%
COc1cnc(-c2c(C)c(C(F)(F)F)n(Cc3ccccc3)c2C(=O)N2CCOCC2)cn1 [Example 05]	40 to 75%
Cc1cc(Cl)ncc1-c1c(C)c(C(F)(F)F)n(Cc2ccccc2)c1C(=O)N1CCOCC1 [Example 27]	75 to 95%
